System Under Test: T1, ROR1 protein (ACROBiosystems, Cat# RO1-H5223) (UniProt Q01973 308-395)
T1 construct: Bought protein
T1 sequence (Q01973 308-395 limits assumed): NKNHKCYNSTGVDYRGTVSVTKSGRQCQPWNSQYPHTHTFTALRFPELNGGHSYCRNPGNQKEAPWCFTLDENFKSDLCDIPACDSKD
Experiment Notes: ELISA on ROR1 protein, anti-IgG secondary antibody, OD450
Measurement Type: EC50 (ng/mL)
Output spec: scalar in ng/mL, unitless text.

• humanized antibody hu17-H4L1 (antibody, human IgG1, kappa, L234A L235A, V domains shown) VH: QVTLKESGPTLVKPTQTLTLTCTFSGFSLSTSGMGVAWIRQPPGKALEWLAHIWWDDDKRYGPSLKSRLTITKDTSKNQVVLTMTNMDPVDTATYYCARPQFITTVVAFYWYFDVWGQGTTVTVSS VL: DILLTQSPSSLSVSVGDRVTITCRASENIYSNLAWYQQKPGKAPKLLVYAATNLADGVPSRFSGSGSGTQYTLTISSLQPEDFATYYCQHFWGTPWTFGGGTKLEIKR = 1.16
• murine antibody 17-F12-G8-A6 (antibody, V domains shown) VH: EVTLKESGPGILQPSQTLSLTCSFSGFSLSTSGMGVAWIRQPSGKGLEWLAHIWWDDDKRYNPALKSRLTISKDTSSNQVFLKIASVDTADTATYYCARPQFITTVVAFYWYFDVWGAGTTVTVSS VL: DILLTQSPASLSVSMGETVTITCRASENIYSNLAWYQQKQGKSPQLLVYAATNLADGVPSRFSGSGSGTQYSLKINSLQSEDFGSYYCQHFWGTPWTFGGGTKLEIK = 1.36
• humanized antibody hu17-H3L1 (antibody, human IgG1, kappa, L234A L235A, V domains shown) VH: QVTLKESGPTLVKPTQTLTLTCSFSGFSLSTSGMGVAWIRQPPGKALEWLAHIWWDDDKRYNPSLKSRLTITKDTSKNQVVLTMTNMDPVDTATYYCARPQFITTVVAFYWYFDVWGQGTTVTVSS VL: DILLTQSPSSLSVSVGDRVTITCRASENIYSNLAWYQQKPGKAPKLLVYAATNLADGVPSRFSGSGSGTQYTLTISSLQPEDFATYYCQHFWGTPWTFGGGTKLEIKR = 1.4

Task: Returns the measured EC50 for the input binder. Input: humanized antibody hu17-H2L1 (antibody, human IgG1, kappa, L234A L235A, V domains shown) VH: EVTLKESGPTLVKPTQTLTLTCSFSGFSLSTSGMGVAWIRQPPGKALEWLAHIWWDDDKRYNPALKSRLTITKDTSKNQVVLTITNVDPVDTATYYCARPQFITTVVAFYWYFDVWGQGTTVTVSS VL: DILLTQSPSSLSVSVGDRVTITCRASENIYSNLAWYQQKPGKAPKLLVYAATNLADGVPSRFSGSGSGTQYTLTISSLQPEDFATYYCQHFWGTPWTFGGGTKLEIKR
Output: 1.42
